Quick reference: IC50 of the listed items.
# tgt: TRPC5 (Homo sapiens, UniProt Q9UL62)
# Construct: expressed in transfected cells; host or cells: HEK 293
# Sequence (Q9UL62 whole entry): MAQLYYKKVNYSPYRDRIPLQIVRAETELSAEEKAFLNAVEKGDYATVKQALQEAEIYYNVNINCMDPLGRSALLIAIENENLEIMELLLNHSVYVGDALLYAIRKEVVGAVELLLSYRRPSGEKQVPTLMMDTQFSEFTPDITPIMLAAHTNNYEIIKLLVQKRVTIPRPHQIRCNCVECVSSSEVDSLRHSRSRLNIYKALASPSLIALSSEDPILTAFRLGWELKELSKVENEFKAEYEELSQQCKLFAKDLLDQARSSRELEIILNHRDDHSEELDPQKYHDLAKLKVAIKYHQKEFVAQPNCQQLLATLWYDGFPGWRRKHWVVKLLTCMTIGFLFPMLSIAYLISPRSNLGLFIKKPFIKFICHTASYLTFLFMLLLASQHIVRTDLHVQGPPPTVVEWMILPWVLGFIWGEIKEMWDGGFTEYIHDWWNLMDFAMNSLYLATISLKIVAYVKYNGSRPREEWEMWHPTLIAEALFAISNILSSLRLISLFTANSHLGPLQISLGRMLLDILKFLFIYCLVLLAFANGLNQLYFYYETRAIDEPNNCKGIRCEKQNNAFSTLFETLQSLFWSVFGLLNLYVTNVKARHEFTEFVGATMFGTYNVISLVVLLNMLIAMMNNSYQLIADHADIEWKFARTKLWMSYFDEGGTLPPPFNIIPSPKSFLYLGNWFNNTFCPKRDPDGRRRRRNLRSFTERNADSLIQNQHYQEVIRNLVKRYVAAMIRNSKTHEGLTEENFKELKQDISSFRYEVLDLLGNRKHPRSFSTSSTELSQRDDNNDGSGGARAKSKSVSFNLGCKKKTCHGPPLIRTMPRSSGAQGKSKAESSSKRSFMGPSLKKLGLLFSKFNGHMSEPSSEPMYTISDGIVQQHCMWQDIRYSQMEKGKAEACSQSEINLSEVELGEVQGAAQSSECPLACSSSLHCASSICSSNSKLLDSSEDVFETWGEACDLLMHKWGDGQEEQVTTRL
# protocol text: TRPC5 automated patch clamp assay (Qpatch), current block after rosiglitazone stimulation
# Format: cell-based
# condition parameters: Table 6; HEK293 cells overexpressing TRPC5; read-out: TRPC5-QPatch IC50

Please review the entries below; each comes with its answer.
O=c1[nH]ncc(N2CCc3c(ncn3Cc3ccncc3C(F)(F)F)C2)c1Cl = 1 to 5 µM
Cc1ccccc1-n1cc2c(n1)CCN(c1cn[nH]c(=O)c1Cl)C2 = 10 to 500 µM
O=c1[nH]ncc(N2CCc3c(nnn3Cc3ccccc3C(F)(F)F)C2)c1Cl [drawing 859] = 1e-05 to 1 µM

Give IC50 for O=c1[nH]ncc(N2CCc3c(ncn3Cc3cnccc3C(F)(F)F)C2)c1Cl 1 to 5 µM

Give IC50 for N#Cc1c(N2CCc3c(nnn3Cc3ccc(F)cc3C(F)(F)F)C2)cn[nH]c1=O 1 to 5 µM
